- MEASUREMENT NOTES: mn = molality of the nth substance listed, in mol/kg
- CONDITION SET: 313.15 K; 100 kPa; Liquid; Capillary tube (Ostwald / Ubbelohde) method; m1 = 0.2
Each record here notes measured viscosity.
REPORTED METRIC: viscosity (mPa·s)

COMPOUND	REPORTED METRIC	UNITS SYMBOL	RECORDED VALUE
C[C@@H](O)[C@H](N)C(=O)O [L-threonine] + O	viscosity	mPa·s	0.694
C[C@H](N)C(=O)O [(S)-2-aminopropanoic acid] + O	viscosity	mPa·s	0.684
N=C(N)NCCC[C@H](N)C(=O)O [L-arginine] + O	viscosity	mPa·s	0.716
NCC(=O)O [2-aminoacetic acid] + O	viscosity	mPa·s	0.673
CC(C)[C@H](N)C(=O)O [L-valine] + O	viscosity	mPa·s	0.704
OC[C@@H](O)[C@@H](O[C@H]1O[C@H](CO)[C@@H](O)[C@H](O)[C@H]1O)[C@H](O)[C@@H](O)CO [4-O-α-D-glucopyranosyl-D-glucitol] + O	viscosity	mPa·s	0.77
